// provenance: patent US20190307836A1

Biological target: T1, Recombinant human CD137 (R&D systems) (human, UniProt Q07011 24-186, biotinylated with EZ-Link Sulfo-NHS-LC-LC-Biotin)
T1 construct: Bought protein; also called human CD137 protein; TNFRSF9
Assay: SPR (Biacore), biotinylated human CD137 on streptavidin chip
Starred links: 1 amine or outer side, 2 acyl side, 3 side chain; linkers in the order of their positions; H or OH if unused. Positions of bridges follow the written chain, without caps; N, C: chain ends. Non-standard residues stand in square brackets, D forms with d. Chains are numbered I, II in the order given. No end group written: not given here. *: point of attachment. TATA = O=C(CC[*:1])N1CN(C(=O)CC[*:2])CN(C(=O)CC[*:3])C1; Hyp = O=C(O)[C@@H]1C[C@@H](O)CN1; hArg = N=C(N)NCCCC[C@H](N)C(=O)O; tBuAla = CC(C)(C)C[C@H](N)C(=O)O; Nle = CCCC[C@H](N)C(=O)O; Pent4ynoyl = C#CCCC(=O)*; Dap = NC[C@H](N)C(=O)O; βAla = NCCC(=O)O; Sar = CNCC(=O)O
REPORTED METRIC: pKd
Formally, pKd is defined as -log10 of the concentration c, with c in mol/L.

Known results for binders:
Data request: Report pKd for heterotandem bicyclic peptide complex BCY8943 (BCY7732: N-terminal acetyl; Nle12; C-terminal Dap (diaminopropionic acid) bearing the linker; Ci, Cii, Ciii on TATA scaffold; BCY8941: N-terminal [PYA]-[B-Ala]-[Sar10]- (linker on PYA); HArg12; Ci, Cii, Ciii on TATA scaffold) peptide 1: VGPCLWDPTPCANLHLXC peptide 2: ACIEEGQYCFADPYXC
Data returned: 6.81

Data request: Fill in pKd for record heterotandem bicyclic peptide complex BCY9173 (linker I:14-I:21-I:28, II:1-II:8-II:15 via TATA; numbers in words are those of the source; also: heterotandem: PYA of chain 1 linked via PEG12 to C-terminal Dap of chain 2) peptide 1: {Pent4ynoyl-βAla}-[Sar][Sar][Sar][Sar][Sar][Sar][Sar][Sar][Sar][Sar]A[hArg]DC[Hyp]LVNPLCLHP[dD]W[hArg]C peptide 2: Ac-C[tBuAla]PE[dA]PYCFADPY[Nle]C[Dap]
Data returned: 8.10

Data request: For the binder heterotandem bicyclic peptide complex BCY9350 (BCY7732: N-terminal acetyl; Nle12; C-terminal Dap (diaminopropionic acid) bearing the linker; Ci, Cii, Ciii on TATA scaffold; BCY11942: N-terminal [PYA]-[B-Ala]-[Sar10]- (linker on PYA); 1Nal2, dD3, HArg5, dW7, HyP11, dW12; Ci, Cii, Ciii on TATA scaffold) peptide 1: CPXDCMXDWSTPXWC peptide 2: ACIEEGQYCFADPYXC , give its measured pKd value.
Data returned: 7.16

Consider the record given below.
Data request: Query pKd for heterotandem bicyclic peptide complex BCY8854 (BCY7732: N-terminal acetyl; Nle12; C-terminal Dap (diaminopropionic acid) bearing the linker; Ci, Cii, Ciii on TATA scaffold; BCY8846: N-terminal [PYA]-[B-Ala]-[Sar10]- (linker on PYA); 1Nal2, dD3, HArg5, HyP11; Ci, Cii, Ciii on TATA scaffold) peptide 1: CPXDCMXDWSTPXWC peptide 2: ACIEEGQYCFADPYXC
Data returned: 6.97
